# TARGET_DESC: E. coli clamp loader, γ-complex (Escherichia coli)
# EXPERIMENT_DESCRIPTION: ATPase inhibition assay, γ-complex
ENDPOINT_NAME: Ki
Please answer using the number first and the unit second.

For the compound Nc1ncnc2c1ncn2[C@@H]1O[C@H](CO[P@](=O)(O)O[P@](=O)(O)O[P@@](=O)(O)S)[C@@H](O)[C@H]1O [ATPγS, reference compound] , what Ki is on record? 13 µM

* * *

# TARGET_DESC: bacteriophage T4 clamp loader, gp44/62 (Enterobacteria phage T4)
# Sequence (P04526 whole entry): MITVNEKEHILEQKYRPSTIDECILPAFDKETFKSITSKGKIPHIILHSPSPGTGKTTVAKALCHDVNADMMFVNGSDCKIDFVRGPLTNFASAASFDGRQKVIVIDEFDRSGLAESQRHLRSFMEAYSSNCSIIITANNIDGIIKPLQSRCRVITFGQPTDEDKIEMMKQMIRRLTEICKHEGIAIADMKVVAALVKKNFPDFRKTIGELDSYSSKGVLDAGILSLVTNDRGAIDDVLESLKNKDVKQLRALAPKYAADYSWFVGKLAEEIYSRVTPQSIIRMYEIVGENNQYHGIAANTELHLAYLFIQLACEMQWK
# Sequence (P04527 whole entry partner): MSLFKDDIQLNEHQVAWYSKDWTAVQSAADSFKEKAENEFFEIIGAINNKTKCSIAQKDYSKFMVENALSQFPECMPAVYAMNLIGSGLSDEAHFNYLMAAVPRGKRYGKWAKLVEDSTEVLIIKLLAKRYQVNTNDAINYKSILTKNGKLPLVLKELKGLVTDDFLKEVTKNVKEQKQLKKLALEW
# EXPERIMENT_DESCRIPTION: ATPase inhibition assay, wild-type gp44/62
# Format: biochemical
# TEST_CONTEXT: Ki (γ-complex) / Ki (gp44/62)
ENDPOINT_NAME: Selectivity Factor

Worked examples follow.
{"columns": ["COMPOUND", "Selectivity Factor"],
 "data": [
  ["Nc1ncnc2c1ncn2[C@@H]1O[C@H](CO[P@](=O)(O)O[P@](=O)(O)O[P@@](=O)(O)S)[C@@H](O)[C@H]1O [ATPγS, reference compound]", 0.44],
  ["O=P(O)(O)OP(=O)(O)OP(=O)(O)OC[C@H]1O[C@@H](n2ccc3cc(F)ccc32)C[C@@H]1O [d5-FITP]", "< 0.17"],
  ["O=P(O)(O)OP(=O)(O)OP(=O)(O)OC[C@H]1O[C@@H](n2ccc3cc(C4CCCCC4)ccc32)C[C@@H]1O [d5-CHITP]", 0.51],
  ["O=[N+]([O-])c1ccc2ccn([C@H]3C[C@H](O)[C@@H](COP(=O)(O)OP(=O)(O)OP(=O)(O)O)O3)c2c1 [d6-NITP]", 1.59],
  ["O=P(O)(O)OP(=O)(O)OP(=O)(O)OCC1OC(n2ccc3ccccc32)CC1O (stereo not drawn) [dITP, indolyl-2’-deoxyriboside triphosphate]", "< 0.30"]
]}

Here's the next entry for you.
Which Selectivity Factor is listed for C=Cc1ccc2c(ccn2[C@H]2C[C@H](O)[C@@H](COP(=O)(O)OP(=O)(O)OP(=O)(O)O)O2)c1 [d5-EyITP] ? < 0.15

Values from paper PMC3169429
